As shown below, each of these compounds has a reported IC50 value.
# System: RT-112
# PROTOCOL NOTES: cells
# Type: functional, cell-based
# CONDITION DESCRIPTION: Homo sapiens
# Description: SANGER: Inhibition of human RT-112 cell growth in a cell viability assay.

Below, 3 compounds whose answers are already recorded.
RECORD SMILES	ASSAY TARGET	IC50
OC[C@H](Cc1ccccc1)Nc1nc(Oc2ccc3c(c2)CCC3)nc2c1ncn2Cc1ccc(-c2ccccc2)cc1	RT-112	> 10.2 µM
O=S(=O)(O)c1ccc2cc(/N=N/c3cc(S(=O)(=O)O)c4cccnc4c3O)ccc2c1	RT-112	> 16 µM
Cc1ccc(-n2nc(C(C)(C)C)cc2NC(=O)Nc2ccc(OCCN3CCOCC3)c3ccccc23)cc1	RT-112	> 10 µM

-- ask // query IC50 value for entry COc1ccc(-c2cc3nccn3c(Nc3ncccc3C(N)=O)n2)cc1OC
-- reply > 8 µM

###

# System: NCI-H1734;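 further: growth inhibition of human NCI-H1734 cells, read out with a cell viability assay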
# PROTOCOL NOTES: cells
# Type: functional, cell-based
# CONDITION DESCRIPTION: Homo sapiens
# Description: SANGER: Inhibition of human NCI-H1734 cell growth in a cell viability assay.
METRIC NAME: IC50 (µM)
The figure you give is taken to be in µM; do not add the unit.

-- ask // query IC50 value for entry COc1ccc(-c2cc3nccn3c(Nc3ncccc3C(N)=O)n2)cc1OC
-- reply 4.86

###

As shown below, each of these compounds has a reported IC50 value.
# Tested on: DoTc2-4510
# PROTOCOL NOTES: cells
# Assay type: functional, cell-based
# CONDITION DESCRIPTION: Homo sapiens
The figure you give is taken to be in nM; do not add the unit.

RECORD SMILES	QUANTITATIVE RESULT
NC(=O)Nc1cc(-c2cccc(F)c2)sc1C(=O)N[C@H]1CCCNC1	782

-- ask // query IC50 value for entry C/C(=C\c1csc(C)n1)[C@@H]1C[C@@H]2O[C@]2(C)CCC[C@H](C)[C@H](O)[C@@H](C)C(=O)C(C)(C)[C@@H](O)CC(=O)O1
-- reply 0.846

###

# System: D-502MG
# PROTOCOL NOTES: cells
# Assay type: functional, cell-based, Homo sapiens
# CONDITION DESCRIPTION: Homo sapiens, D-502MG
# Description: SANGER: Inhibition of human D-502MG cell growth in a cell viability assay.
pIC50: −log10 of the molar value.
METRIC NAME: pIC50

COMPOUND	pIC50
Cc1ccc(NC(=O)c2ccc(CN3CCN(C)CC3)cc2)cc1Nc1nccc(-c2cccnc2)n1 [IMATINIB]	< 5.70
O=C1NC(=O)c2c1c(-c1ccccc1Cl)cc1[nH]c3ccc(O)cc3c21	< 5.70
Cc1ccc(C(=O)Nc2ccc(CN3CCN(C)CC3)c(C(F)(F)F)c2)cc1C#Cc1cnc2cccnn12 [PONATINIB]	< 6.29
CC(C)C[C@H](NC(=O)[C@H](Cc1ccccc1)NC(=O)c1cnccn1)B(O)O [BORTEZOMIB]	8.20
NC(=O)Nc1cc(-c2cccc(F)c2)sc1C(=O)N[C@H]1CCCNC1 [AZD-7762]	< 5.70

-- ask // query pIC50 value for entry O=C(NCCCNc1nc(Nc2cccc(NC(=O)N3CCCC3)c2)ncc1I)c1cccs1 [BX-795]
-- reply < 5.30

###

As shown below, each of these compounds has a reported IC50 value.
# System: NUGC-3
# PROTOCOL NOTES: cells
# Type: functional, cell-based
# CONDITION DESCRIPTION: Homo sapiens
# Description: SANGER: Inhibition of human NUGC-3 cell growth in a cell viability assay.

COMPOUND	ASSAY TARGET	IC50
CC1=C(/C=C/C(C)=C/C=C/C(C)=C/C(=O)O)C(C)(C)CCC1 [TRETINOIN]	NUGC-3	> 10 µM
CN(C)CCOc1ccc(-c2nc(-c3ccncc3)c(-c3ccc4c(c3)CC/C4=N\O)[nH]2)cc1 [SB590885]	NUGC-3	> 5 µM
Cc1ccc(C(=O)Nc2ccc(CN3CCN(C)CC3)c(C(F)(F)F)c2)cc1C#Cc1cnc2cccnn12 [PONATINIB]	NUGC-3	> 0.512 µM

Field: next compound
-- ask // query IC50 value for entry O=C(NCCCNc1nc(Nc2cccc(NC(=O)N3CCCC3)c2)ncc1I)c1cccs1 [BX-795]
-- reply > 5 µM
